Experiment: Cytotoxicity against MDCK cells infected with Influenza A virus A/Puerto Rico/8/34 (H1N1) assessed as reduction in cell viability
Format: toxicity, cell-based, Canis lupus familiaris
Settings: dog
Recorded CC50 for the following molecules
Unit µM implied. Number only.

These recorded examples may help you get a feel for the data.
molecule=CC1(C)[C@@H]2CC[C@@]1(c1nc(-c3ccc(C(F)(F)F)cc3)no1)C(=O)C2 result_number=32
molecule=CC1(C)[C@@H]2CC[C@@]1(C(=O)O/N=C(\N)Cc1cccc(F)c1)C(=O)C2 result_number=830
molecule=CC1(C)[C@@H]2CC[C@@]1(C(=O)O/N=C(\N)c1ccccc1F)C(=O)C2 result_number=238

For the molecule CC1(C)[C@@H]2CC[C@@]1(C(=O)O/N=C(\N)c1ccc(F)cc1)C(=O)C2 , what CC50 is on record?
236

For the molecule CC/C(N)=N/OC(=O)[C@]12CC[C@H](CC1=O)C2(C)C , what CC50 is on record?
807

For the molecule CC1(C)[C@@H]2CC[C@@]1(C(=O)O/N=C(\N)Cc1ccc(Br)cc1)C(=O)C2 , what CC50 is on record?
46

For the molecule CC(C)/C(N)=N/OC(=O)[C@]12CC[C@H](CC1=O)C2(C)C , what CC50 is on record?
730

For the molecule CC1(C)[C@@H]2CC[C@@]1(c1nc(-c3ccc(Cl)cc3)no1)C(=O)C2 , what CC50 is on record?
52
